target: T1, Ac-WPPPPRVPRGSG-COOH; assay: ITC
T1 chain: Ac-WPPPPRVPRGSG-OH
MEASURED METRIC: pKd
A value of pKd is the negative decimal logarithm of a concentration given in moles per litre.

*Q* Look up pKd of FBP21-tWW WW1-WW2 (protein) DPSKGRWVEGITSEGYHYYYDLISGASQWEKPEGFQGDLKKTAVKTVWVEGLSEDGFTYYYNTETGESRWEKPDD and report it.
*A* 3.82
